# measurementTarget: ARHGEF12, Q9NZN5-2
# Sequence (Q9NZN5 other isoform, or with tags, fused parts or gaps): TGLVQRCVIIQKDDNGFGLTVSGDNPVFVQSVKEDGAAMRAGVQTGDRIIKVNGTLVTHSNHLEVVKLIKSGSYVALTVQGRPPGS
# assayDetails: holdup assay
# Design: key: below the threshold = too weak to quantify, mostly under pKd 3.1 to 4
# measurementContext: plain residues with an end cap or a label only (N-terminal biotin on a linker: ado-ado)
metric: pKd
A bare number is all that is needed in reply.

binder	pKd
QHKTQLQTLI [BPIFA2, Q96DR5]	4.33

Indicate the recorded pKd value for this binder: PKRSFIESNV [TANC1, Q9C0D5]
3.47

Quote pKd reported for MLSKQSESAI [FLVCR1, Q9Y5Y0] please.
3.68

Return reported pKd. Input binder: SAKVRTVTSV [RASL11B, Q9BPW5]
4.68

Give the reported value of pKd for this record: AKPSRISTVV [IQSEC2, Q5JU85]
4.75

Please give the documented pKd of TSQESEDTYL [TBC1D10A, Q9BXI6]
4.02
